What Kd was measured for each of the following?
- tested system: T1, mSin3A PAH2 (mammalian Sin3A PAH2 domain, residues 295-385) ( ("mammalian"), UniProt Q60520 295-385)
- T1 sequence (looked up): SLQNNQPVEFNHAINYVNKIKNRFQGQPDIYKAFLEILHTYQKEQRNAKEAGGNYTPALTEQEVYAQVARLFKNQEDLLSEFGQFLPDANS
- method summary: ITC
Don't forget the unit after the number, please.

A selection of reference data follows.
binder	Kd
DYVQPQLRRPFELLIAAAMERNPTQFQLPNELTCTTALPGSS (domain or fragment, UniProt Q96QT6 200-241, looked up) [Pf1 200-241 (human Pf1 residues 200-241, wild type)]	2150 nM
DYVQPQLRRPFELLIAAAMERNPTQAQLPNELTCTTALPGSS (domain or fragment, human, UniProt Q96QT6 200-241, looked up) [Pf1 200-241 Phe225Ala]	1650 nM
DYVQPQLRRPFELLIAAAMEREPTQFQLPNELTCTTALPGSS (domain or fragment, human, UniProt Q96QT6 200-241, looked up) [Pf1 200-241 Asn221Glu]	630 nM

Field request: Kd | item: DYVQPQLRRPFEALIAAAMERNPTQFQLPNELTCTTALPGSS (domain or fragment, human, UniProt Q96QT6 200-241, looked up) [Pf1 200-241 Leu212Ala]
2660 nM
